molecular target: T1, rHuman P-Cadherin/Fc Chimera, CF (R&D Systems Cat#861-PC) (human, UniProt P22223 108-654); assay: ECL multispot (MSD) binding assay, antigen spotted on plate;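 note: purified Fab incubated 1 h at 20 °C on antigen spots, detected with TAG-labelled antibody, electrochemiluminescence compared with each well's blank, signal-to-blank ratio ≥4 counted as hit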
T1 construct: Bought recombinant protein
ECL signal values for the binders below.

# Binder, ECL signal
data = [
    ("Fab VH1-46_IGHD6-6*01_IGHJ1*01 S102A/S103P/S104F/H111F (APFF) & L6_IGKJ1*01 S31M (Fab, V domains shown, Tested as Fab (CH1 with His6/Flag tags, kappa CL) made in E. coli; also called APFF / S31M) VH: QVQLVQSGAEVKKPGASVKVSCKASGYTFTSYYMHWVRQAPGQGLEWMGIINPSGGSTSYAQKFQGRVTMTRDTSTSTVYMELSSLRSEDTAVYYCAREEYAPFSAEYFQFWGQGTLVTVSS VL: EIVLTQSPATLSLSPGERATLSCRASQSVSMYLAWYQQKPGQAPRLLIYDASNRATGIPARFSGSGSGTDFTLTISSLEPEDFAVYYCQQRSNWPPWTFGQGTKVEIKR", 510),
    ("Fab VH1-46_IGHD6-6*01_IGHJ1*01 S102A/S103P/S104F/H111F (APFF) & L6_IGKJ1*01 S31D (Fab, V domains shown, Tested as Fab (CH1 with His6/Flag tags, kappa CL) made in E. coli; also called APFF / S31D) VH: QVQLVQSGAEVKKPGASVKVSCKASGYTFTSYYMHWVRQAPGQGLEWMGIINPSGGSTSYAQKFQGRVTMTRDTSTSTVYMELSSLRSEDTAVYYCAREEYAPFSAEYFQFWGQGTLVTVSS VL: EIVLTQSPATLSLSPGERATLSCRASQSVSDYLAWYQQKPGQAPRLLIYDASNRATGIPARFSGSGSGTDFTLTISSLEPEDFAVYYCQQRSNWPPWTFGQGTKVEIKR", 451),
    ("Fab VH1-46_IGHD6-6*01_IGHJ1*01 S102A/S103P/S104F/H111F (APFF) & L6_IGKJ1*01 S31V (Fab, V domains shown, Tested as Fab (CH1 with His6/Flag tags, kappa CL) made in E. coli; also called APFF / S31V) VH: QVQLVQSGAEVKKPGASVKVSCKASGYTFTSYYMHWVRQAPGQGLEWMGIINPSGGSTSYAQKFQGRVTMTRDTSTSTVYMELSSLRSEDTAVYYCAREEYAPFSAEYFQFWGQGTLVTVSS VL: EIVLTQSPATLSLSPGERATLSCRASQSVSVYLAWYQQKPGQAPRLLIYDASNRATGIPARFSGSGSGTDFTLTISSLEPEDFAVYYCQQRSNWPPWTFGQGTKVEIKR", 360),
    ("Fab VH1-46_IGHD6-6*01_IGHJ1*01 S102A/S103P/S104F/H111F (APFF) & L6_IGKJ1*01 S31A (Fab, V domains shown, Tested as Fab (CH1 with His6/Flag tags, kappa CL) made in E. coli; also called APFF / S31A) VH: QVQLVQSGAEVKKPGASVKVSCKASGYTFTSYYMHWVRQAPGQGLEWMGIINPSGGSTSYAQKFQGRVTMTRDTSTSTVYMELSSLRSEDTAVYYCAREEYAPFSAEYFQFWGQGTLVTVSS VL: EIVLTQSPATLSLSPGERATLSCRASQSVSAYLAWYQQKPGQAPRLLIYDASNRATGIPARFSGSGSGTDFTLTISSLEPEDFAVYYCQQRSNWPPWTFGQGTKVEIKR", 361),
    ("Fab VH1-46_IGHD6-6*01_IGHJ1*01 S102A/S103P/S104F/H111F (APFF) & L6_IGKJ1*01 S31L (Fab, V domains shown, Tested as Fab (CH1 with His6/Flag tags, kappa CL) made in E. coli; also called APFF / S31L) VH: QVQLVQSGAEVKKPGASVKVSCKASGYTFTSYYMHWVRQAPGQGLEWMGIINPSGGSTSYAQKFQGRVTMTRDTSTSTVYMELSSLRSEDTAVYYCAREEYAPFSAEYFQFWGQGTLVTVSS VL: EIVLTQSPATLSLSPGERATLSCRASQSVSLYLAWYQQKPGQAPRLLIYDASNRATGIPARFSGSGSGTDFTLTISSLEPEDFAVYYCQQRSNWPPWTFGQGTKVEIKR", 346),
    ("Fab VH1-46_IGHD6-6*01_IGHJ1*01 S102A/S103P/S104F/H111F (APFF) & L6_IGKJ1*01 S31H (Fab, V domains shown, Tested as Fab (CH1 with His6/Flag tags, kappa CL) made in E. coli; also called APFF / S31H) VH: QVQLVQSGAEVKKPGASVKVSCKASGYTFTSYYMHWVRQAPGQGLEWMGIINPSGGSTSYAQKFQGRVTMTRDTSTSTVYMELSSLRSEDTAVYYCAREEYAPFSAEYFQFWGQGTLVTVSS VL: EIVLTQSPATLSLSPGERATLSCRASQSVSHYLAWYQQKPGQAPRLLIYDASNRATGIPARFSGSGSGTDFTLTISSLEPEDFAVYYCQQRSNWPPWTFGQGTKVEIKR", 480),
]
